Value source: PubChem BioAssay AID504580

experiment: fluorescent RNA aptamer quenching, single concentration, confirmation, artefact control for GRK2 RNA aptamer inhibitor project, biochemical, single point, cherry pick 1, flow cytometry (AID 504580); settings: Carboxyfluorescein RNA aptamer on beads, at 10 µM, hits give low values;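 further: counterscreen run without GRK2 so only probe quenching by compound is measured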
Fewer than 10 of roughly 2,000 compounds were called active. Only a sample is shown.
Reported fluorescence response (% of DMSO) values are given for each entry in this list.
MEASURED PARAMETER: fluorescence response (% of DMSO) (%)

[
  {
    "COMPOUND": "C/C(=N\\Nc1nc2ccccc2[nH]1)c1cccs1",
    "MEASURED PARAMETER": "fluorescence response (% of DMSO)",
    "EXPERIMENTAL RESULT": 92.8
  },
  {
    "COMPOUND": "COc1ccc(-n2nc(C(=O)NCC(=O)N3CCCCCC3)c3ccccc3c2=O)cc1Cl",
    "MEASURED PARAMETER": "fluorescence response (% of DMSO)",
    "EXPERIMENTAL RESULT": 105
  },
  {
    "COMPOUND": "COc1ccc(Cl)cc1NC(=O)CCS(=O)(=O)c1cc2c(cc1C)NC(=O)CO2",
    "MEASURED PARAMETER": "fluorescence response (% of DMSO)",
    "EXPERIMENTAL RESULT": 99.6
  },
  {
    "COMPOUND": "COCCCNC(=O)CNC(=O)c1nn(-c2ccc(OC)cc2)c(=O)c2ccccc12",
    "MEASURED PARAMETER": "fluorescence response (% of DMSO)",
    "EXPERIMENTAL RESULT": 96.3
  },
  {
    "COMPOUND": "C/C(=N\\OCC(=O)O)c1ccc(Cl)cc1",
    "MEASURED PARAMETER": "fluorescence response (% of DMSO)",
    "EXPERIMENTAL RESULT": 101
  },
  {
    "COMPOUND": "O=C(c1ccc(Cl)cc1)c1ccc(OCC(O)CN2CCCCC2)cc1 (configuration not stated)",
    "MEASURED PARAMETER": "fluorescence response (% of DMSO)",
    "EXPERIMENTAL RESULT": 101
  },
  {
    "COMPOUND": "CCN1/C(=C/c2ccc3ccc(C)cc3[n+]2CC)Sc2ccccc21",
    "MEASURED PARAMETER": "fluorescence response (% of DMSO)",
    "EXPERIMENTAL RESULT": 142
  },
  {
    "COMPOUND": "CCN1C(=O)[C@H]2[C@@H](c3ccc(-c4ccc(OC)cc4)cc3)N[C@@](Cc3ccccc3)(C(=O)OC)[C@H]2C1=O",
    "MEASURED PARAMETER": "fluorescence response (% of DMSO)",
    "EXPERIMENTAL RESULT": 96.4
  },
  {
    "COMPOUND": "COC(=O)N/N=C/c1ccc(/C=N/NC(=O)OC)cc1",
    "MEASURED PARAMETER": "fluorescence response (% of DMSO)",
    "EXPERIMENTAL RESULT": 100
  },
  {
    "COMPOUND": "CSc1nc2ccccc2c(=O)n1Cc1ccc(F)cc1",
    "MEASURED PARAMETER": "fluorescence response (% of DMSO)",
    "EXPERIMENTAL RESULT": 100
  },
  {
    "COMPOUND": "Cc1ccc(-c2nn(-c3ccccc3)cc2/C=C2\\SC(=S)N(CCCCCC(=O)O)C2=O)o1",
    "MEASURED PARAMETER": "fluorescence response (% of DMSO)",
    "EXPERIMENTAL RESULT": 136
  },
  {
    "COMPOUND": "O=C1C2N=NN(CC(=O)N3N=C(c4cccc5ccccc45)CC3c3ccccc3)C2C(=O)N1c1ccccc1 (configuration not stated)",
    "MEASURED PARAMETER": "fluorescence response (% of DMSO)",
    "EXPERIMENTAL RESULT": 91.2
  },
  {
    "COMPOUND": "Cn1c(=O)c2c(nc(N3CCOCC3)n2CCNC2=NCCC2)n(C)c1=O",
    "MEASURED PARAMETER": "fluorescence response (% of DMSO)",
    "EXPERIMENTAL RESULT": 99.8
  },
  {
    "COMPOUND": "COc1ccc(C(=O)NCCNc2ccc([N+](=O)[O-])cn2)cc1",
    "MEASURED PARAMETER": "fluorescence response (% of DMSO)",
    "EXPERIMENTAL RESULT": 99.4
  },
  {
    "COMPOUND": "O=C(COc1ccccc1)NCCc1nc2ccccc2[nH]1",
    "MEASURED PARAMETER": "fluorescence response (% of DMSO)",
    "EXPERIMENTAL RESULT": 99.7
  },
  {
    "COMPOUND": "CC(C)CN(C(=O)c1cccc(S(=O)(=O)N2CCCCC2)c1)C1CCS(=O)(=O)C1 (configuration not stated)",
    "MEASURED PARAMETER": "fluorescence response (% of DMSO)",
    "EXPERIMENTAL RESULT": 102
  },
  {
    "COMPOUND": "O=C(NCc1ccccc1)c1cccc(NC(=O)C2CCCCC2)c1",
    "MEASURED PARAMETER": "fluorescence response (% of DMSO)",
    "EXPERIMENTAL RESULT": 98
  },
  {
    "COMPOUND": "CCOc1ccccc1C(=O)NCc1ccco1",
    "MEASURED PARAMETER": "fluorescence response (% of DMSO)",
    "EXPERIMENTAL RESULT": 96
  },
  {
    "COMPOUND": "Nc1ccc2nc3c(=O)[nH]c(=S)[nH]c3nc2c1",
    "MEASURED PARAMETER": "fluorescence response (% of DMSO)",
    "EXPERIMENTAL RESULT": 83.9
  },
  {
    "COMPOUND": "CC(NC(=O)C1CCCN(S(=O)(=O)c2ccc(-n3cnnn3)cc2)C1)c1ccc(F)cc1 (configuration not stated)",
    "MEASURED PARAMETER": "fluorescence response (% of DMSO)",
    "EXPERIMENTAL RESULT": 105
  },
  {
    "COMPOUND": "O=C(CCNC(=O)c1ccccc1)NN=Cc1ccc(Br)o1",
    "MEASURED PARAMETER": "fluorescence response (% of DMSO)",
    "EXPERIMENTAL RESULT": 96.6
  },
  {
    "COMPOUND": "O=C(NCC12CC3CC(C1)CC(CNC(=O)N1CCCC1)(C3)C2)N1CCCC1",
    "MEASURED PARAMETER": "fluorescence response (% of DMSO)",
    "EXPERIMENTAL RESULT": 98.2
  }
]
